# Tested target: T1, Recombinant murine glypican-3 (aa 25-557), R&D Systems (murine, UniProt Q8CFZ4 25-557)
# T1 construct: also called muGPC3; Mu GPC3-His
# T1 sequence (Q8CFZ4 25-557 limits assumed, form in doubt): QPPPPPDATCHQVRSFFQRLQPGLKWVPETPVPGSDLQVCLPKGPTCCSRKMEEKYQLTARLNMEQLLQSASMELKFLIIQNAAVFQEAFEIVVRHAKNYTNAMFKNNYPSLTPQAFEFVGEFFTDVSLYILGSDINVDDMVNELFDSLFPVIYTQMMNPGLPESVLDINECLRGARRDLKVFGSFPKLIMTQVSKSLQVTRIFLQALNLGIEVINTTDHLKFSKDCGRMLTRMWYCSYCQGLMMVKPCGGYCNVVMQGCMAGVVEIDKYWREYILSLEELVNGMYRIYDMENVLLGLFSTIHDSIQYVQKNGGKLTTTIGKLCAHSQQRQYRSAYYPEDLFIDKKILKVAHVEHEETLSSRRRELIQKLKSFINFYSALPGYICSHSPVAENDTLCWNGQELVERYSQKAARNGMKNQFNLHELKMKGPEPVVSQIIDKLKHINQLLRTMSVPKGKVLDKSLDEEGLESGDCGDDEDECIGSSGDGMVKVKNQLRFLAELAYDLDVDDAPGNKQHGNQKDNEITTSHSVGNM
# Assay text: SPR, Biacore T100, GPC3-His immobilised, 1:1 fit
// values below are reported koff
Number only, in s⁻¹; omit the unit.

ADX_6077_F02 DG→AG mutant, alkylated (designed binder, C-terminal cysteine alkylated, also called P1-055669) GVSDVPRDLEVVAATPTSLLISWSDDYHAHRYYRITYGETGGNSPVQEFTVPGEHVTATISGLKPGVDYTITVYAVTYAGEKAATDWSISINYRTPC	0.0021

QUERY: Quick one: koff of ADX_6077_F02 DG→DV mutant, alkylated (designed binder, C-terminal cysteine alkylated, also called P1-055672) GVSDVPRDLEVVAATPTSLLISWSDDYHAHRYYRITYGETGGNSPVQEFTVPGEHVTATISGLKPGVDYTITVYAVTYDVEKAATDWSISINYRTPC ?
RESULT: 0.0025

Data provenance is patent US20230312686A1.
